Biological target: T1, human MSLN-R1-his protein (human, UniProt Q13421 296-390)
T1 construct: Self-made in HEK293E cells; also called human MSLN-R1 protein; hMSLN-R1-his; not shown: His tag
T1 chain: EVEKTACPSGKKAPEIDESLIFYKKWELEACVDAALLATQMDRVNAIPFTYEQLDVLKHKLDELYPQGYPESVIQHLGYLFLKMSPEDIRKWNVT
Assay: ELISA on coated antigen, no antibody (column none)
Measurement type: OD450 (OD450)
Numbers only, in OD450.

- S009-F3.38.10 (antibody, human IgG1, kappa, V domains shown, Human-murine chimeric antibody: murine VH/VL on human IgG1 heavy and kappa light constant regions) VH: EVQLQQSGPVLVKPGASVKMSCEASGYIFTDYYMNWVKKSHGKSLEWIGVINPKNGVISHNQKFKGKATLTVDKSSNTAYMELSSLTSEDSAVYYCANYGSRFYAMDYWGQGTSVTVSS VL: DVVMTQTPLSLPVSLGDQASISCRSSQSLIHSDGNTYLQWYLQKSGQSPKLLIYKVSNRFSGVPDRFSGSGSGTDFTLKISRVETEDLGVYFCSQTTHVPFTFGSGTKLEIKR: 0.07

Dear reader, for each entry below, please note its OD450.
1. S009-F3.74.20 (antibody, human IgG1, kappa, V domains shown, Human-murine chimeric antibody: murine VH/VL on human IgG1 heavy and kappa light constant regions) VH: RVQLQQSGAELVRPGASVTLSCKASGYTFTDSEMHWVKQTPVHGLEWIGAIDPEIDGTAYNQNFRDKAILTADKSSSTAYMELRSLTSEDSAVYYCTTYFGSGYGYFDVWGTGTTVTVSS VL: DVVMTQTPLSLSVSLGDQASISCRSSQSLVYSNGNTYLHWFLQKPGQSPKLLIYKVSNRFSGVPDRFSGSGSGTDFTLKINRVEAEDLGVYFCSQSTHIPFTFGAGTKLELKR
2. S009-F3.45.21 (antibody, human IgG1, kappa, V domains shown, Human-murine chimeric antibody: murine VH/VL on human IgG1 heavy and kappa light constant regions) VH: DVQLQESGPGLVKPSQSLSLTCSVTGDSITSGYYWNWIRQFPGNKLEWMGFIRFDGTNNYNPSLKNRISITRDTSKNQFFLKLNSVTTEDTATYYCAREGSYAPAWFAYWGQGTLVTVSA VL: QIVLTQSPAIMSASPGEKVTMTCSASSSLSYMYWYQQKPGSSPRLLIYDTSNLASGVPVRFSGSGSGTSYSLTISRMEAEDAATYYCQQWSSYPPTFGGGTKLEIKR

1: 0.07; 2: 0.07
